The reported measurements were obtained from patent US10125098B2.

TARGET_OR_SYSTEM: human NaV1.7 (Homo sapiens, UniProt Q15858)
Construct: permanently transfected with an expression vector containing the full-length cDNA coding for the desired human sodium channel α-subunit
Sequence (Q15858 1-1977 isoform Q15858-3): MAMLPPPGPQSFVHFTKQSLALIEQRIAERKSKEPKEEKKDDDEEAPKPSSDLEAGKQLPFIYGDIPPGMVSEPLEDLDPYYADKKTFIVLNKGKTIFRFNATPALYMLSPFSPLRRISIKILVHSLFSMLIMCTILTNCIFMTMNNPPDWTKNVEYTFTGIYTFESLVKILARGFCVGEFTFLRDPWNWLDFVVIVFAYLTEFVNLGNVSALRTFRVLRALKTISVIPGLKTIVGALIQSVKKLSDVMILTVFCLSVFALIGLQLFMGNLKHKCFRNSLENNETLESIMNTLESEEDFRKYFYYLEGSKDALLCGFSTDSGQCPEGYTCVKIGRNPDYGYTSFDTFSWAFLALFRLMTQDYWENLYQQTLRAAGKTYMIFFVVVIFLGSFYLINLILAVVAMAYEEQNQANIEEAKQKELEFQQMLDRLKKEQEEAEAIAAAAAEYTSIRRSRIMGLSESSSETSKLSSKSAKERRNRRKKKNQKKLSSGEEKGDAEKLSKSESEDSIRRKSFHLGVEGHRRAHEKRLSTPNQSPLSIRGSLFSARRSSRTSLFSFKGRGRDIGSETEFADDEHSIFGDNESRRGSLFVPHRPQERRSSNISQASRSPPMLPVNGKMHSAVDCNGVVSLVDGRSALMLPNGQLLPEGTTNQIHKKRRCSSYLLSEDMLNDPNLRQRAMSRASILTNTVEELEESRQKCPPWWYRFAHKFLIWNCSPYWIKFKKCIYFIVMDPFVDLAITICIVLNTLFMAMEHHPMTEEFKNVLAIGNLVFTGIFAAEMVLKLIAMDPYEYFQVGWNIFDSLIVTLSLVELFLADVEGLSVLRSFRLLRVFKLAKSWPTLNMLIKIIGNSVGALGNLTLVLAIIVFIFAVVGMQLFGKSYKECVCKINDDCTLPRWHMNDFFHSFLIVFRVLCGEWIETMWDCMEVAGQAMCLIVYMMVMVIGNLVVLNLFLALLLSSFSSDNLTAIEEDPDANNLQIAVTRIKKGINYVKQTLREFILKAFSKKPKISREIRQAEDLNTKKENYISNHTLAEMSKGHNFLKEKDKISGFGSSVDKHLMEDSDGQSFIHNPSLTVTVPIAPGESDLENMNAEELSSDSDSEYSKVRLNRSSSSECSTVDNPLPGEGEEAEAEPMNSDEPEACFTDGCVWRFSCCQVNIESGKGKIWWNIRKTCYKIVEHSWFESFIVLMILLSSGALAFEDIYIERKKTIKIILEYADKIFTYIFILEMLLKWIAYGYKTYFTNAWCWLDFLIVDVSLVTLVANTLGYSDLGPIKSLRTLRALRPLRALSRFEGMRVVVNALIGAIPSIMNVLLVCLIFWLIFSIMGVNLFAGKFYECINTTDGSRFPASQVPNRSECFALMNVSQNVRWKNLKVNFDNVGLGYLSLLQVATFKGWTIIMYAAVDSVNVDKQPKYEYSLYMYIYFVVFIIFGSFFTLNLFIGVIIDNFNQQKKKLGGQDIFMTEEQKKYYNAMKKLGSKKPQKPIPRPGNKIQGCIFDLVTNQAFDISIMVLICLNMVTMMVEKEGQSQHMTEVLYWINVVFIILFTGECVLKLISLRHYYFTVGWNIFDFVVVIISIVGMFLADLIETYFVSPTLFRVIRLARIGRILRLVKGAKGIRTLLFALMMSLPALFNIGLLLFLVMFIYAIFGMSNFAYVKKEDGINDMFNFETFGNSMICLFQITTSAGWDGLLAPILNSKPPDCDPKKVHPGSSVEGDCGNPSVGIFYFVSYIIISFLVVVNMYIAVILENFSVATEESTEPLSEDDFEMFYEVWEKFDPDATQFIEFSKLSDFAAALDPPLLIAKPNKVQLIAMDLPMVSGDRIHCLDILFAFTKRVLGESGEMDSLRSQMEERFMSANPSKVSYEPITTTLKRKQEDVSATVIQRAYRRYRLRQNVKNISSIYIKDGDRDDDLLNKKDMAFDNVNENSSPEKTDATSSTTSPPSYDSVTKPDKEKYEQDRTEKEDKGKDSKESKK
Sequence (Q07699 19-218 partner): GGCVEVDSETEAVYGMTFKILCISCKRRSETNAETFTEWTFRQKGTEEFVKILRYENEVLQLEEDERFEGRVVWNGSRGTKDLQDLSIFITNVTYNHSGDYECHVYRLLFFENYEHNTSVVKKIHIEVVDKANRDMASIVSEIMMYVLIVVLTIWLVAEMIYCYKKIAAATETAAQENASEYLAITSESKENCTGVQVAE
RUN_DESCRIPTION: Patch voltage clamp electrophysiology assay (EP), NaV1.7
CONDITION_DETAILS: HEK-293 cells stably expressing NaV1.7 with β1 subunit; whole-cell patch clamp, membrane potential −60 mV (inactivated state)
pIC50: −log10 of the molar value. Where a name gives a salt, the structure may show the parent alone.
Each entry gets not satisfied if its pIC50 stays under 6, and satisfied if its pIC50 is 6 or above.

compound="O=C(O)[C@@H]1[C@@H]2C[C@@H]2CN1C(=O)c1cc(C2CC2)c(OCC23CC4CC(CC(C4)C2)C3)cc1F (racemic) [Example 61]" group_label="not satisfied"
compound="C[C@H]1CCN(C(=O)c2cc(C3CC3)c(OCC3(C)CN([C@H](c4ccccc4)c4cc(Cl)cc(Cl)c4)C3)cc2F)[C@@H]1C(=O)O (single isomer, unassigned) [Example 115]" group_label=satisfied
compound="C[C@H]1OCN(C(=O)c2cc(C3CC3)c(OCC3CCN(Cc4c(Cl)cccc4Cl)CC3)cc2F)[C@@H]1C(=O)O [Example 224]" group_label=satisfied
compound="O=C(N[C@@H](CC1CC1)C(=O)O)c1cc(C2CC2)c(OCC23CC4CC(CC(C4)C2)C3)cc1F [Example 189]" group_label="not satisfied"
compound="O=C(O)[C@@H]1CCCN1C(=O)c1cc(C2CC2)c(OC[C@@H]2CCN(C(c3ccccc3)c3ccccc3)C2)cc1F (single isomer, unassigned) [Example 139b]" group_label="not satisfied"
compound="C[C@@H]1[C@@H](C(=O)O)N(C(=O)c2cc(C3CC3)c(OCC34CC5CC(CC(C5)C3)C4)cc2F)C[C@@H]1F [Example 219]" group_label=satisfied
compound="O=C(O)[C@@H]1C[C@@H](F)CN1C(=O)c1cc(C2CC2)c(OCC2CCN(Cc3ccc(Cl)c(F)c3)CC2)cc1F [Example 104]" group_label="not satisfied"
compound="O=C(O)C[C@@H]1CCCN1C(=O)c1cc(C2CC2)c(OCC23CC4CC(CC(C4)C2)C3)cc1F [Example 206]" group_label="not satisfied"
compound="O=C(O)C[C@H](NC(=O)c1cc(C2CC2)c(OCC23CC4CC(CC(C4)C2)C3)cc1F)C(=O)O [Example 84]" group_label="not satisfied"
compound="C[C@]1(COc2cc(F)c(C(=O)N3CCC[C@H]3C(=O)O)cc2C2CC2)CCN(Cc2cc(F)cc(Cl)c2)C1 (single isomer, unassigned) [Example 137b]" group_label="not satisfied"
compound="C[C@H]1CCN(C(=O)c2cc(C3CC3)c(OCC3(C)CN([C@@H](c4ccccc4)c4cc(Cl)cc(Cl)c4)C3)cc2F)[C@@H]1C(=O)O (single isomer, unassigned) [Example 116]" group_label=satisfied
compound="O=C(O)[C@@H]1C[C@@H](F)CN1C(=O)c1cc(C2CC2)c(OCC2CCN([C@@H](c3cc(Cl)cc(Cl)c3)C(F)(F)F)CC2)cc1F (single isomer, unassigned) [Example 140b]" group_label=satisfied
compound="COC1(C(F)(F)F)C[C@@H](C(=O)O)N(C(=O)c2cc(C3CC3)c(OCC34CC5CC(CC(C5)C3)C4)cc2F)C1 (stereo partly drawn) [Example 214]" group_label="not satisfied"
compound="CC(c1cc(Cl)cc(Cl)c1)N1CCC(F)(COc2cc(F)c(C(=O)N3C[C@H](F)C[C@H]3C(=O)O)cc2C2CC2)CC1 (stereo partly drawn) [Example 129]" group_label=satisfied
compound="O=C(O)[C@@H]1CCC(=O)N1C(=O)c1cc(C2CC2)c(OCC23CC4CC(CC(C4)C2)C3)cc1F [Example 198]" group_label="not satisfied"
compound="O=C(O)[C@@H]1C[C@@H](F)CN1C(=O)c1cc(C2CC2)c(OCC2CCN([C@@H](c3ccccc3)c3cc(Cl)cc(Cl)c3)CC2)cc1F (single isomer, unassigned) [Example 125]" group_label=satisfied
compound="N#C[C@H]1C[C@@H](C(=O)O)N(C(=O)c2cc(C3CC3)c(OCC34CC5CC(CC(C5)C3)C4)cc2F)C1 [Example 144]" group_label="not satisfied"
compound="C[C@H]1OCN(C(=O)c2cc(C3CC3)c(OCC3CCN([C@@H](c4cc(Cl)cc(Cl)c4)C(F)(F)F)CC3)cc2F)[C@@H]1C(=O)O (single isomer, unassigned) [Example 138b]" group_label=satisfied
compound="O=C(O)[C@@H]1CCCN1C(=O)c1cc(C2CC2)c(OCC2CCN(Cc3nc(-c4ccccc4Cl)no3)CC2)cc1F [Example 197, trifluoroacetate]" group_label="not satisfied"
compound="NC(=O)[C@@H]1CCCN1C(=O)c1cc(C2CC2)c(COc2cc(Cl)cc(OC(F)(F)F)c2)cc1F [Example 188]" group_label="not satisfied"

----------
TARGET_OR_SYSTEM: hNav1.7 (Homo sapiens)
RUN_DESCRIPTION: Tritiated compound binding (LBA) to membranes from cells expressing hNav1.7 and the β1 subunit, competitive binding
CONDITION_DETAILS: competitive binding vs 100 pM [3H]compound, 18 h, room temperature, membranes with hNav1.7 and β1 subunit
pIC50: −log10 of the molar value. Structures can show the parent of a compound that is named as a salt.
Each entry gets condition not met if its pIC50 stays under 7, and condition met if its pIC50 is 7 or above.

molecule=O=C(O)[C@@H]1CCCCN1C(=O)c1cc(C2CC2)c(OCC23CC4CC(CC(C4)C2)C3)cc1F target_or_system="hNav1.7 (Homo sapiens)" group_label="condition not met"
molecule="CC(C)COc1ncc(Oc2cc(F)c(C(=O)N3CCC[C@H]3C(=O)O)cc2Cl)cc1Cl [Example 97, trifluoroacetic acid salt]" target_or_system="hNav1.7 (Homo sapiens)" group_label="condition not met"
molecule="CC(c1cc(Cl)cc(Cl)c1)N1CCC(COc2cc(F)c(C(=O)N3C[C@H](F)C[C@H]3C(=O)O)cc2C2CC2)CC1 (stereo partly shown)" target_or_system="hNav1.7 (Homo sapiens)" group_label="condition met"
molecule=C[C@@H](Oc1ccc(Cl)c(Cl)c1)c1cc(F)c(C(=O)N2CCC[C@H]2C(=O)O)cc1C1CC1 target_or_system="hNav1.7 (Homo sapiens)" group_label="condition not met"
molecule=O=C(c1cc(C2CC2)c(OCC23CC4CC(CC(C4)C2)C3)cc1F)N1CC2CC1(C(=O)O)C2 target_or_system="hNav1.7 (Homo sapiens)" group_label="condition not met"
molecule=O=C(O)[C@@H]1COC(=O)N1C(=O)c1cc(C2CC2)c(OCC23CC4CC(CC(C4)C2)C3)cc1F target_or_system="hNav1.7 (Homo sapiens)" group_label="condition not met"
molecule=O=C(O)[C@@H]1CCCN1C(=O)c1cc(Cl)c(OCC23CC4CC(CC(C4)C2)C3)cc1F target_or_system="hNav1.7 (Homo sapiens)" group_label="condition not met"
molecule="O=C(O)[C@@H]1CCCN1C(=O)c1cc(C2CC2)c(OCC2CCN(C(c3ccccc3)c3cc(Cl)cc(Cl)c3)CC2)cc1F (stereo partly shown) [Example 193, trifluoroacetate]" target_or_system="hNav1.7 (Homo sapiens)" group_label="condition met"
molecule="O=C(N[C@H](C(=O)O)C1CC1)c1cc(C2CC2)c(OCC2CCN([C@@H](c3ccccc3)c3cc(Cl)cc(Cl)c3)CC2)cc1F (single isomer, unassigned)" target_or_system="hNav1.7 (Homo sapiens)" group_label="condition met"
molecule="O=C(O)[C@@H]1CC(F)(F)CN1C(=O)c1cc(C2CC2)c(OCC23CC4CC(CC(C4)C2)C3)cc1F [Example 160]" target_or_system="hNav1.7 (Homo sapiens)" group_label="condition met"

----------
TARGET_OR_SYSTEM: hNav1.7 (Homo sapiens, UniProt Q15858)
RUN_DESCRIPTION: Tritiated compound binding (LBA) to membranes from cells expressing hNav1.7 and the β1 subunit, competitive binding
CONDITION_DETAILS: competitive binding vs 100 pM [3H]compound, 18 h, room temperature, membranes with hNav1.7 and β1 subunit
Recorded IC50 values for a group of molecules are listed next.
PARAMETER: IC50 (nM)

molecule=O=C(O)[C@H]1CSCN1C(=O)c1cc(C2CC2)c(OCC23CC4CC(CC(C4)C2)C3)cc1F target_or_system="hNav1.7 (Homo sapiens, UniProt Q15858)" measure_unit=nM measured_number=30
molecule="N#CC1(COc2cc(F)c(C(=O)N3CCC[C@H]3C(=O)O)cc2C2CC2)C2CC3CC(C2)CC1C3 (stereo partly shown)" target_or_system="hNav1.7 (Homo sapiens, UniProt Q15858)" measure_unit=nM measured_number=1540
molecule=O=C(O)C[C@@H]1CCCN1C(=O)c1cc(C2CC2)c(OCC23CC4CC(CC(C4)C2)C3)cc1F target_or_system="hNav1.7 (Homo sapiens, UniProt Q15858)" measure_unit=nM measured_number=260
molecule=O=C(O)C1=CCCN1C(=O)c1cc(C2CC2)c(OCC23CC4CC(CC(C4)C2)C3)cc1F target_or_system="hNav1.7 (Homo sapiens, UniProt Q15858)" measure_unit=nM measured_number=190
